System: M-07e cells
experimental protocol: SCF-dependent M-07e cell proliferation assay
Format: cell-based, human
condition parameters: Homo sapiens, M-07e, 72 h, SCF-dependent M-07e cell proliferation, 3 days, CellTiter Glo; read-out: M-07e IC50
Where a name gives a salt, the structure may show the parent alone.
Please respond with Met when measured IC50 is strictly beneath 600 nM, and with Not met in all other cases.

Identify whether the compound CN(c1ccc(CNC(=O)c2ccc3c(c2)[nH]c(=O)n3C)cn1)C1CC2C(C1)C2(F)F (stereo not shown) records IC50 below 600 nM.
Met

Identify whether the compound CN(c1ccc(CNC(=O)c2ccc3c(c2)[nH]c(=O)n3C)cn1)C1CC2(CC2)C1 [Example 109, formate] records IC50 below 600 nM.
Met

Identify whether the compound `CN(c1ccc(CNC(=O)c2cc(F)c3[nH]c(=O)[nH]c3c2)cn1)C1CC(F)(F)C1` records IC50 below 600 nM.
Not met

Identify whether the compound `Cn1c(=O)[nH]c2cc(C(=O)NCc3ccc(Nc4ccc(F)cc4)nc3)ccc21` records IC50 below 600 nM.
Not met

Identify whether the compound `CC(C)N(C)c1ccc(CNC(=O)c2ccc3[nH]c(=O)[nH]c3c2)cn1` records IC50 below 600 nM.
Not met

Identify whether the compound Cn1c(=O)[nH]c2cc(C(=O)NCc3ccc(OC4CC(C(F)(F)F)C4)nc3)ccc21 (stereo not shown) records IC50 below 600 nM.
Not met

Identify whether the compound `Cn1c(=O)[nH]c2cc(C(=O)NCc3cnc4c(ccn4-c4ccccc4)c3)ccc21` records IC50 below 600 nM.
Met

Identify whether the compound CC(NC(=O)c1ccc2c(c1)[nH]c(=O)n2C)c1ccc(N(C)C(C)C)nc1 (stereo not shown) [Example 130] records IC50 below 600 nM.
Not met

Identify whether the compound CC(NC(=O)c1ccc2c(c1)[nH]c(=O)n2C)c1ccc(N(C)C(C)C)nc1 (single isomer, unassigned) [130 Peak 1] records IC50 below 600 nM.
Not met

Identify whether the compound `CN(c1ccc(CNC(=O)c2cc(F)c3[nH]c(=O)[nH]c3c2)cn1)C1CCC(F)(F)CC1` records IC50 below 600 nM.
Not met

Identify whether the compound `CC(C)N(C)c1ccc(CNC(=O)c2cc3[nH]c(=O)[nH]c3cc2F)cn1` records IC50 below 600 nM.
Met

Identify whether the compound `C[C@H]1CCCN1c1ccc(CNC(=O)c2ccc3c(c2)[nH]c(=O)n3C)cn1` records IC50 below 600 nM.
Met

Identify whether the compound `Cn1c(=O)[nH]c2cc(C(=O)NCc3cnc4c(c3)CCN4c3ccccc3F)ccc21` records IC50 below 600 nM.
Met

Identify whether the compound CN(c1ccc(CNC(=O)c2ccc3c([nH]c(=O)n3C)c2F)cn1)C1CCC(F)(F)C1 (stereo not shown) records IC50 below 600 nM.
Met

Identify whether the compound CC(C)N(C)c1ccc(CNC(=O)c2ccc3c(c2)[nH]c(=O)n3C)cn1 [Compound 11b, hydrochloride] records IC50 below 600 nM.
Met

Identify whether the compound `Cn1c(=O)[nH]c2cc(C(=O)NCc3cnc4c(c3)CCN4C3CCC(F)(F)CC3)ccc21` records IC50 below 600 nM.
Met

Identify whether the compound `CN(c1ccc(CNC(=O)c2cc3[nH]c(=O)n(C)c3cc2F)cn1)C1CC(F)(F)C1` records IC50 below 600 nM.
Not met

Identify whether the compound CC(NC(=O)c1ccc2c(c1)[nH]c(=O)n2C)c1ccc(Oc2ccc(F)cc2)nc1 (single isomer, unassigned) [Compound 6 Peak 1] records IC50 below 600 nM.
Not met

Identify whether the compound CC(c1ccccc1)N(C)c1ccc(CNC(=O)c2ccc3c(c2)[nH]c(=O)n3C)cn1 (stereo not shown) records IC50 below 600 nM.
Not met

Identify whether the compound `Cn1c(=O)[nH]c2cc(C(=O)NCc3ccc(N(C)[C@H]4C[C@@H](C(F)(F)F)C4)nc3)ccc21` records IC50 below 600 nM.
Met

Identify whether the compound `CC(C)N1CCc2cc(CNC(=O)c3ccc4c(c3)[nH]c(=O)n4C)cnc21` records IC50 below 600 nM.
Met

Identify whether the compound CC(c1ccc(F)cc1)c1ccc(CNC(=O)c2ccc3c(c2)[nH]c(=O)n3C)cn1 (stereo not shown) records IC50 below 600 nM.
Not met

Identify whether the compound `CN(c1ccc(CNC(=O)c2ccc3[nH]c(=O)[nH]c3c2)cn1)C1CCC(F)(F)CC1` records IC50 below 600 nM.
Not met

Identify whether the compound `CN(c1ccc(CNC(=O)c2ccc3c(c2)[nH]c(=O)n3C)cn1)[C@H]1CCC(F)(F)C1` records IC50 below 600 nM.
Met

Identify whether the compound CN(c1ccc(CNC(=O)c2cc3[nH]c(=O)[nH]c3c(F)c2F)cn1)C1CCC(F)(F)C1 (stereo not shown) records IC50 below 600 nM.
Not met

Identify whether the compound CN(c1ccc(CNC(=O)c2cc3[nH]c(=O)[nH]c3cc2F)cn1)C1CCC(F)(F)C1 (stereo not shown) records IC50 below 600 nM.
Met

Identify whether the compound [2H]C([2H])([2H])n1c(=O)[nH]c2cc(C(=O)NCc3ccc(N(C)[C@H]4C[C@@H](C(F)(F)F)C4)nc3)ccc21 (relative stereo) records IC50 below 600 nM.
Met

====

test target: recombinant human KIT tyrosine kinase protein (Homo sapiens (Human))
Sequence (P10721 546-976): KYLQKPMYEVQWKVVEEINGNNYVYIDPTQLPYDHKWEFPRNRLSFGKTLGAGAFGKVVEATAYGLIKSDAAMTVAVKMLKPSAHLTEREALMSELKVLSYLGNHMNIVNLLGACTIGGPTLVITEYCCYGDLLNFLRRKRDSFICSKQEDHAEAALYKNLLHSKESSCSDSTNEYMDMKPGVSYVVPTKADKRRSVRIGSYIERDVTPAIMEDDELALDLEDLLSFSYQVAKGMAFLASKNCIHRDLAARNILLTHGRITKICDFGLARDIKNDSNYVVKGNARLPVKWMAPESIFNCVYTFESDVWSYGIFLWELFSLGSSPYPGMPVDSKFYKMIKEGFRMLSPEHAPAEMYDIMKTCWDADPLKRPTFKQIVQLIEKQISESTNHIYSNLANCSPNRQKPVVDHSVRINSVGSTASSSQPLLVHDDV
experimental protocol: KIT tyrosine kinase assay (ADP-Glo)
Type: biochemical
condition parameters: Table 98
Counter-ions that a name gives are not always drawn.
Give measured log10(IC50) for each item. Keep answers brief.
Note the log scale: values are log10 of IC50 expressed in nM.

Measured log10(IC50), `Cn1c(=O)[nH]c2cc(C(=O)NCc3ccc(Oc4ccc5[nH]ncc5c4)nc3)ccc21` : 1.43

Measured log10(IC50), `Cn1c(=O)[nH]c2cc(C(=O)NCc3ccc(N4CCCC4(C)C)nc3)ccc21` : 1.53

Measured log10(IC50), `CN1CCC(N(C)c2ccc(CNC(=O)c3ccc4c(c3)[nH]c(=O)n4C)cn2)CC1` : 2.53

Measured log10(IC50), Cn1c(=O)[nH]c2cc(C(=O)NCc3ccc(Oc4ccccc4F)nc3)c(F)cc21 [Compound 3, trifluoroacetate] : 1.41

Measured log10(IC50), `CN(Cc1ccccn1)c1ccc(CNC(=O)c2ccc3c(c2)[nH]c(=O)n3C)cn1` : 1.93

Measured log10(IC50), CN(CC1CCCOC1)c1ccc(CNC(=O)c2ccc3c(c2)[nH]c(=O)n3C)cn1 (centres unmarked) : 1.98

Measured log10(IC50), `Cn1c(=O)[nH]c2cc(C(=O)NCc3cnc(Oc4ccc(F)cc4)cn3)ccc21` : 2.98

Measured log10(IC50), CC(C)N(C)c1ccc(CNC(=O)c2ccc3c(c2)[nH]c(=O)n3C)cn1 [Compound 11b, hydrochloride] : 1.98

====

test target: recombinant human KIT tyrosine kinase protein (Homo sapiens (Human))
experimental protocol: KIT tyrosine kinase assay (ADP-Glo)
Format: biochemical
condition parameters: Table 99
Counter-ions that a name gives are not always drawn.
Give measured IC50 for each item. Keep answers brief.

Measured IC50, `CC(C)N(C)c1ccc(CNC(=O)c2cc3[nH]c(=O)[nH]c3cc2F)cn1` : 27 nM

Measured IC50, `COc1cc(C(=O)NCc2ccc(N(C)[C@H]3C[C@@H](C(F)(F)F)C3)nc2)cc2[nH]c(=O)[nH]c12` : 15 nM

Measured IC50, CC(C)N(C)c1ccc(C(CO)NC(=O)c2ccc3c(c2)[nH]c(=O)n3C)cn1 (stereo not drawn) [Example 114b] : 317 nM

Measured IC50, `CN(c1ccc(CNC(=O)c2ccc3c(c2)[nH]c(=O)n3C)cn1)[C@@H]1CCC(F)(F)C1` : 32 nM

Measured IC50, `CN(c1ccc(CNC(=O)c2ccc3c(c2)[nH]c(=O)n3C)cn1)C1CCC2(CC1)COC2` : 126 nM

Measured IC50, CN(c1ccc(CNC(=O)c2cc3[nH]c(=O)[nH]c3c(F)c2F)cn1)C1CCC(F)(F)C1 (stereo not drawn) : 30 nM

Measured IC50, CN(c1ccc(CNC(=O)c2cc3[nH]c(=O)[nH]c3cc2F)cn1)C1CCC(F)(F)C1 (stereo not drawn) : 18 nM

Measured IC50, `CN(c1ccc(CNC(=O)c2ccc3c(c2)[nH]c(=O)n3C)cn1)[C@H]1CCC(F)(F)C1` : 21 nM

Measured IC50, CN(c1ccc(CNC(=O)c2ccc3c(c2)[nH]c(=O)n3C)cn1)C1CC2(C1)CC2(F)F (stereo not drawn) : 31 nM

Measured IC50, `CN(c1ccc(CNC(=O)c2ccc3c(c2)[nH]c(=O)n3C)cn1)C1CC2(COC2)C1` : 59 nM

Measured IC50, `CN(c1ccc(CNC(=O)c2cc(F)c3[nH]c(=O)[nH]c3c2)cn1)[C@H]1C[C@@H](C(F)(F)F)C1` : 18 nM

Measured IC50, CN(c1ccc(CNC(=O)c2ccc3c(c2)[nH]c(=O)n3C)cn1)C1CC2(CC2)C1 [Example 109, formate] : 25 nM

Measured IC50, `CN(c1ccc(CNC(=O)c2cc3[nH]c(=O)[nH]c3cc2F)cn1)[C@H]1C[C@@H](C(F)(F)F)C1` : 23 nM

Measured IC50, CN(c1ccc(CNC(=O)c2ccc3c(c2)[nH]c(=O)n3C)cn1)C1CC2C(C1)C2(F)F (stereo not drawn) : 22 nM

Measured IC50, `CN(c1ccc(CNC(=O)c2ccc3c(c2)[nH]c(=O)n3C)cn1)[C@@H]1CC[C@H](F)C1` : 38 nM
